Reference source: the NIST ThermoML archive (doi:10.1016/j.jct.2013.05.006)

Experiment: activity coefficient (dimensionless); of the first substance listed, at infinite dilution; xn = mol fraction of the nth substance listed
Settings: 298 K; 101 kPa; Liquid; Chromatography; x1 = 0
Readout type: activity coefficient

# Molecule, Numeric readout
rows = [
    ("Brc1ccccc1 [bromobenzene] + NC=O", 107),
    ("c1ccc2ccccc2c1 [naphthalene] + NC=O", 533),
    ("Clc1ccccc1Cl [1,2-dichlorobenzene] + NC=O", 159),
    ("c1ccccc1 [benzene] + NC=O", 53),
    ("c1ccc(-c2ccccc2)cc1 [biphenyl] + NC=O", 1320),
    ("Fc1ccccc1 [fluorobenzene] + NC=O", 54),
    ("Clc1ccccc1 [chlorobenzene] + NC=O", 94),
    ("Cc1ccccc1 [toluene] + NC=O", 81),
]
